Reported residual activity values follow for various compounds
- measuredOn: UniProtKB Q16513
- Sequence (Q16513 whole entry, looked up): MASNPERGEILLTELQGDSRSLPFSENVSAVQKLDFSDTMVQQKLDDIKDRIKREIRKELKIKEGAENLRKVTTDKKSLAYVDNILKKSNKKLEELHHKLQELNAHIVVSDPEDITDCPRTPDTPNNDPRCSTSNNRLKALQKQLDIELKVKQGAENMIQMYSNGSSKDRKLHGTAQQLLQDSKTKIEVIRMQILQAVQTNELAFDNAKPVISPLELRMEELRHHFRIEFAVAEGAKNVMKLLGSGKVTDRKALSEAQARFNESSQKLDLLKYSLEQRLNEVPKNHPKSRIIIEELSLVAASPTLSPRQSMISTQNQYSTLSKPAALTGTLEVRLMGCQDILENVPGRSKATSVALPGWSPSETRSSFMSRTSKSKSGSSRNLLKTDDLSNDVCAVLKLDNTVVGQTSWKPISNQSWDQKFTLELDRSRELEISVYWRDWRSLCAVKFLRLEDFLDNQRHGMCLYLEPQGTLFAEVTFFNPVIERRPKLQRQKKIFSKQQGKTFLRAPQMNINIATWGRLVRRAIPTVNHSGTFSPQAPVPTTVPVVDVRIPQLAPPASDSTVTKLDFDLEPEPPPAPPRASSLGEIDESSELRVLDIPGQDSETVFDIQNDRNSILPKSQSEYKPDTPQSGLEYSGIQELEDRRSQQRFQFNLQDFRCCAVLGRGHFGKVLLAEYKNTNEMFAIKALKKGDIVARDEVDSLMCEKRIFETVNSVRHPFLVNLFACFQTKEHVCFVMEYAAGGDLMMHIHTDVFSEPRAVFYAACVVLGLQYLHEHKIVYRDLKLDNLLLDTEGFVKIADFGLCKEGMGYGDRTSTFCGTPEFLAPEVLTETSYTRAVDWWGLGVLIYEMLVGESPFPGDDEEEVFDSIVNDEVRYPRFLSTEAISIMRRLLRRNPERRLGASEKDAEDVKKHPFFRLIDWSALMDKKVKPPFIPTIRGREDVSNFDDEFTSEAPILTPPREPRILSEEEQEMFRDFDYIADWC
- methodSummary: radiometric filter-binding kinase assay, Kinase HotSpot
- measurementContext: compound 0.5 µM; ATP 10 µM
observable: residual activity (%)

smilesnotation=CS(=O)(=O)CCNCc1ccc(-c2ccc3ncnc(Nc4ccc(OCc5cccc(F)c5)c(Cl)c4)c3c2)o1 unitslabel=% valueobserved=92
smilesnotation=COc1ccc2c(c1)/C(=C/c1cnc[nH]1)C(O)=N2 unitslabel=% valueobserved=90.8
smilesnotation=COc1ccc(Cl)cc1NC(=O)Nc1cc(C)nc2ccccc12 unitslabel=% valueobserved=89.7
smilesnotation=O=C1Nc2ccc(Br)cc2/C1=C\c1cc2c([nH]1)CCCC2 unitslabel=% valueobserved=91.3
smilesnotation=NC(=O)c1cccc(-c2cc(Nc3ccc(OC(F)(F)F)cc3)ncn2)c1 unitslabel=% valueobserved=89.8
smilesnotation=CCCCc1c(-c2ccc(OC)cc2)[nH]c2nccnc12 unitslabel=% valueobserved=88.6
